Hello, the source for this data is patent US9617304B2, in case you need it.

- Test system: Tac/3S chimeric protein
- assayName: Endocytosis of Tac/3S chimeric protein in COS-7 cells after pretreatment with inhibitors
- Assay type: cell-based
- conditionSummary: COS-7; 100 μg/ml ConA, 80 μM Dynasore, 1 μM Go6976, 1 μM K252a, 1 μM Vinblastine, 30 minutes pretreatment
assayReadout: endocytosis of Tac/3S chimeric protein

COC(=O)[C@@]1(O)C[C@H]2O[C@]1(C)n1c3ccccc3c3c4c(c5c6ccccc6n2c5c31)C(=O)NC4 [K252a] | not inhibited
O=C(N/N=C/c1ccc(O)c(O)c1)c1cc2ccccc2cc1O | inhibited
Cn1c2ccccc2c2c3c(c4c5ccccc5n(CCC#N)c4c21)CNC3=O | inhibited
CC[C@]1(O)C[C@@H]2CN(CCc3c([nH]c4ccccc34)[C@@](C(=O)OC)(c3cc4c(cc3OC)N(C)[C@H]3[C@@](O)(C(=O)OC)[C@H](OC(C)=O)[C@]5(CC)C=CCN6CC[C@]43[C@@H]65)C2)C1 | not inhibited
